target: Cytochrome P450 2C19 (Homo sapiens); settings: bti-tn-5b1-4; further: in other assays of this panel Not Active means under 50% inhibition at 10 µM
Sequence (P33261 whole entry): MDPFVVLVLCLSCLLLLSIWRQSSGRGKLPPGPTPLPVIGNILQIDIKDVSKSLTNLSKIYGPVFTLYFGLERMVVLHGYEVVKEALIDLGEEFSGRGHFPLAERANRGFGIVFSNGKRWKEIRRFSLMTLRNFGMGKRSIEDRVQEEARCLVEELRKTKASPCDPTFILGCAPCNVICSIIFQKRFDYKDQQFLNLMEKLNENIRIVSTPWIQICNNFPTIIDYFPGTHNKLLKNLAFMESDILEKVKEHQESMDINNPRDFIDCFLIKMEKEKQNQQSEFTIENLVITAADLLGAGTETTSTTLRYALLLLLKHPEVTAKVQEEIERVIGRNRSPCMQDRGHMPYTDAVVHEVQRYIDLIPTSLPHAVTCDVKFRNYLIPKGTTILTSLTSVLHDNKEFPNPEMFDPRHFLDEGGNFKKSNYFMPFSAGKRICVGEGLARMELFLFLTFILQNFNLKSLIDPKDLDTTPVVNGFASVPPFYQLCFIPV

>  <substance>
COBALTOUS CHLORIDE

>  <IC50>
Not Active

$$$$
>  <substance>
TRANSPLATIN

>  <IC50>
Not Active

$$$$
>  <substance>
ZIRCONIUM(IV) CHLORIDE

>  <IC50>
Not Active

$$$$
>  <substance>
COLISTIN

>  <IC50>
Not Active

$$$$

* * *

target: Acetylcholinesterase (Homo sapiens); assay: DRUGMATRIX: Acetylcholinesterase enzyme inhibition (substrate: acetylthiocholine); format: cell-based, HEK293; conditions: Not Active = under 50% inhibition at 10 µM; read-out: IC50
Sequence (P22303 whole entry): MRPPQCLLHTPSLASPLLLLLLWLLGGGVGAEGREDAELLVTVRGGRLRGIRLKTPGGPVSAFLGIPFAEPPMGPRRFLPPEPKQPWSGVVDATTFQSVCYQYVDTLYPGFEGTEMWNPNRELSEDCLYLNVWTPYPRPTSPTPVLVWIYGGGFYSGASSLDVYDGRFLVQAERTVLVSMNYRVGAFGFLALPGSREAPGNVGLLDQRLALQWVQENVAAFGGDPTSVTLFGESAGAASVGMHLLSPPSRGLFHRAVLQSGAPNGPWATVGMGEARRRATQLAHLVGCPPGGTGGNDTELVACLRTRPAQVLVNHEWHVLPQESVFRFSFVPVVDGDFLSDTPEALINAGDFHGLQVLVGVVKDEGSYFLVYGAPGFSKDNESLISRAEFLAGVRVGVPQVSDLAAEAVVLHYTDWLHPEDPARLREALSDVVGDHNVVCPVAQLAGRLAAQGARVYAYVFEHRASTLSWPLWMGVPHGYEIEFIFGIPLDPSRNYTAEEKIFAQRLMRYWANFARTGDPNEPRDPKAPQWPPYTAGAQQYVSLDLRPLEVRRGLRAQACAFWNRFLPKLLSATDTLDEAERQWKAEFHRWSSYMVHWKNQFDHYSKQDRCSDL
experimental_readout: IC50 (µM)
Give bare numbers, in µM.

// query Report measured IC50; entry is Clc1ccc(COC(Cn2ccnc2)c2ccc(Cl)cc2Cl)c(Cl)c1 (stereo unspecified)
// result 18.7

Value source: ChEMBL document CHEMBL1909046
